The measured values listed here are drawn from patent US10683487B2.

This listing pairs compounds with measured Relative activity.
# System: lactose oxidase of the NUK-21 strain
# experimentSummary: Substrate specificity of lactose oxidase (OD500 nm peroxidase chromogen assay)
# Type: biochemical, Myrmecridium flexuosum NUK-21
# recordedConditions: 7 mM substrate
# Protocol: Fifty mM of various buffers with different pH values were prepared, including CH3COOH—CH3COONa (pH 4.5-5.5), K2HPO4—NaH2PO4 (pH 5.5-8.0), Tris-HCl (pH 7.0-9.0), and Na2CO3—NaHCO3 (pH 9.0-11). Enzyme activity was determined by peroxidase chromogen method (Clin Chem, 1974; 20:470-475). […] A spectrophotometer was used to detect the absorbance of OD500 nm at room temperature (detection at every 15 seconds for a total of 90 seconds). […]
quantityKind: Relative activity (%)

compound	experimentalTarget	unitsOfMeasure	measuredValue
OC[C@@H](O)[C@H](O)[C@@H](O)CO	lactose oxidase of the NUK-21 strain	%	0
OC[C@H]1O[C@H](O[C@H]2[C@H](O)[C@@H](O)[C@H](O)O[C@@H]2CO)[C@H](O)[C@@H](O)[C@@H]1O	lactose oxidase of the NUK-21 strain	%	24.8
O=C(O)[C@H](O)[C@@H](O)[C@H](O[C@@H]1O[C@H](CO)[C@H](O)[C@H](O)[C@H]1O)[C@H](O)CO	lactose oxidase of the NUK-21 strain	%	0
O=C[C@H](O)[C@@H](O)[C@@H](O)[C@H](O)CO	lactose oxidase of the NUK-21 strain	%	1.8
OC[C@@H](O)[C@@H](O)[C@H](O)[C@@H](O)CO	lactose oxidase of the NUK-21 strain	%	0
O=C[C@H](O)[C@@H](O)[C@H](O)CO	lactose oxidase of the NUK-21 strain	%	0
OC[C@H]1O[C@@H](O[C@H]2[C@H](O)[C@@H](O)C(O)O[C@@H]2CO)[C@H](O)[C@@H](O)[C@H]1O (stereo partly shown)	lactose oxidase of the NUK-21 strain	%	100
O=C[C@H](O)[C@@H](O)[C@H](O[C@@H]1O[C@H](CO)[C@@H](O)[C@H](O)[C@H]1O)[C@H](O)CO	lactose oxidase of the NUK-21 strain	%	81.7
O=C(CO)[C@@H](O)[C@H](O)[C@H](O)CO	lactose oxidase of the NUK-21 strain	%	0
OC[C@H]1O[C@@](CO)(O[C@H]2O[C@H](CO)[C@@H](O)[C@H](O)[C@H]2O)[C@@H](O)[C@@H]1O	lactose oxidase of the NUK-21 strain	%	0

* * *

# Tested on: lactose oxidase of the NUK-21 strain
# experimentSummary: Effects of chemicals on enzyme activity (dissolved oxygen assay)
# Type: biochemical, Myrmecridium flexuosum NUK-21
# recordedConditions: chemical 1 mM, 30° C., 1 hour
# Protocol: The purified enzyme was added to A buffer containing 1 mM of various chemical solution and incubated in a water bath at 30° C. for 1 hour. Dissolved oxygen assay was used to determine the enzyme activity of lactose oxidase.
This listing pairs compounds with measured Relative activity.
quantityKind: Relative activity (%)

compound	experimentalTarget	quantityKind	unitsOfMeasure	measuredValue
CCN1C(=O)C=CC1=O [N-ethylmaleimide]	lactose oxidase of the NUK-21 strain	Relative activity	%	139.5
O=S(=O)(F)Cc1ccccc1 [PMSF]	lactose oxidase of the NUK-21 strain	Relative activity	%	104.9
c1cnc2c(c1)ccc1cccnc12 [1,10-phenanthroline]	lactose oxidase of the NUK-21 strain	Relative activity	%	98.8
O=C(CBr)c1ccc(Br)cc1 [2,4′-dibromoacetophenone]	lactose oxidase of the NUK-21 strain	Relative activity	%	99
[N-]=[N+]=[N-].[Na+] [NaN3]	lactose oxidase of the NUK-21 strain	Relative activity	%	131.3
OO [H2O2]	lactose oxidase of the NUK-21 strain	Relative activity	%	100
